This collection of values is drawn from PubChem BioAssay (NCI).

Items are presented alongside their recorded TGI.
# Test system: SN12C renal
# Experimental Details: NCI tumour cell line growth inhibition, 48 h
Where a SMILES comes first, the peptide text is derived from it. [ ]: non-standard residue; d: D form. The star is where a group is joined. Phe(4-NO2) = N[CH](Cc1ccc([N+](=O)[O-])cc1)C(=O)O; Boc = CC(C)(C)OC(=O)*

Compound	TGI
c1cc2cc3c4c5c(cc6ccc7cc8cc9c%10c8c8c7c6c5c8c5c%10c(c1C9N1CCOCCOCCOCCOCCOCC1)c2c45)C3 (stereo not drawn)	> 100 µM
COC(=O)/C=C\n1nc(Br)c(=O)[nH]c1=O	> 100 µM
CC(CCc1nc2ccccc2s1)(c1ccc(O)cc1)c1ccc(O)cc1	33.6 µM
CC(C)(C)c1ccc(C2CC(=O)C3=C(C2)Nc2ccccc2N(C(=O)c2ccccc2Cl)C3c2ccc(F)cc2)cc1 (stereo not drawn)	> 100 µM
Cc1nc2ccc(Br)cc2c(=O)n1-c1ccc(N)cc1	> 100 µM
O=C1CS/C(=N/S(=O)(=O)c2ccc(N3N=C4c5ccccc5CC4C3c3cccs3)cc2)N1C(=O)c1ccccc1 (stereo not drawn)	> 100 µM
O=C1OC(=O)C23CSCC12C1C=CC3O1 (stereo not drawn)	> 100 µM
CN(C)C=N[C@@H](C(=O)O)c1ccccc1	> 100 µM
Cc1cc(C)nc(NS(=O)(=O)c2ccc(NNc3c4ccccc4nc4c(C(=O)Nc5ccc(S(=O)(=O)Nc6cc(C)on6)cc5)cccc34)cc2)n1	> 100 µM
O=C1C=CC(=O)c2c1ccc1c3ccccc3n(Cc3ccccc3)c21	42.9 µM
CCC1CCCCN1CC(C(C)=O)C(c1ccccc1)c1c(O)c2ccccc2oc1=O (stereo not drawn)	> 100 µM
NC1CCCCC1NCCNC1CCCCC1N (stereo not drawn)	> 100 µM
CC/C=C/c1cc2c(cc1O)CCC1C2CC[C@@]2(C)C1CC[C@@H]2O (stereo partly drawn)	18.7 µM
CCOC(=O)CCC(NC(=O)C(Cc1ccc([N+](=O)[O-])cc1)NC(=O)OC(C)(C)C)C(=O)NC(CCC(=O)OCC)C(=O)OCC (stereo not drawn) (Boc-[Phe(4-NO2)]-Glu(OEt)-Glu(OEt)-OEt; configuration not given here)	49.7 µM
CCCCCCC(=O)C/C(CCC(=O)N(Cc1ccccc1)Cc1ccccc1)=N\NC(N)=O	> 100 µM
COc1ccc(Br)c(CN2CCc3ccccc32)c1OS(=O)(=O)c1ccc(C)cc1	> 100 µM
O=c1c2ccccc2oc2ccccc12 (tested in a mixture with another compound)	60.8 µM
N/N=C(/N)SCCCCCCCCCCS/C(N)=N/N	> 100 µM
CC(C)(C)c1cc(OCc2nnc3sc(Cc4ccccc4)nn23)c(Cl)cc1OCc1nnc2sc(Cc3ccccc3)nn12	> 100 µM
COC(=O)CC1(O)C=CC(=O)C=C1	37.6 µM
O=C(O)Cn1c2c(c3c1-c1ccccc1C3=O)C(=O)CCC2	> 100 µM
CC(=O)CC(=O)N1CCSC1=S	> 10 µM
COc1cc(S(=O)(=O)Nc2nc(-c3ccc(N4C(=O)C(C)SC4c4ccccc4O)cc3)cs2)ccc1Cl (stereo not drawn)	> 100 µM
